Please provide measured protein stability index for the entries that follow.
B1: RTP4 (parent)
chain: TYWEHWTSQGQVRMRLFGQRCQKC

variants of: B1; experiment: protein stability index of a GFP-peptide fusion (GPS, HEK-293T) (PSI 1-6); higher = more stable; conditions: c terminus: a fixed tail appended;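 also: lentivirally expressed fusions sorted by FACS into six bins by GFP to DsRed ratio, PSI derived from sequencing read proportions per bin multiplied by bin number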
Give bare numbers.

Reference set (5 entries):
VARIANT_IDENTIFIER	protein stability index
R20T	2.22
R13D	2.04
K23H	1.1
M14E	2.36
Q9F	1.77

For every listed record, write down its protein stability index.
1. G10C
2. L16N
3. C24R

[1.87, 2.43, 2.29]

For every listed record, write down its protein stability index.
1. W6Y
2. K23T
3. G10I
4. G10Q
5. K23G
6. Q11L
7. Q9C
8. Q19R

2.05
1.07
2.47
1.8
1.15
2.02
1.48
1.46

For every listed record, write down its protein stability index.
1. G18H
2. T1H
3. H5E
4. G18I
5. M14G
6. Y2N

[2.23, 2.48, 2.19, 2.39, 2.51, 2.49]
